# test name: Plasma stability assay (LC-MS)
# Format: in vitro ADME
# conditions used: male, Sprague-Dawley, heparinized rat plasma, 37° C., Table 3, read-out: Plasma stability t½
Bridge positions count the residues as written; N and C are the ends. Square brackets hold non-standard residues; d marks the D form. Peptide text beside a SMILES is read from it. pGlu = O=C1CC[C@@H](C(=O)O)N1; Nle = CCCC[C@H](N)C(=O)O
measurement type: half-life at 5000 ng/mL (h)

1. CCCC[C@@H]1NC(=O)[C@@H]2CCCN2C(=O)CNC(=O)[C@H](CCCCN)NC(=O)[C@H](Cc2c[nH]cn2)NC(=O)[C@H](CO)NC(=O)[C@@H](NC(=O)[C@H](CCCNC(=N)N)NC(=O)[C@@H]2CCCN2C(=O)[C@H](CCCNC(=N)N)NC(=O)[C@@H]2CCC(=O)N2)CSSC[C@@H](C(=O)N[C@@H](Cc2ccccc2)C(=O)O)NC1=O [Example 1, pE-R-P-R-C*-S-H-K-G-P-Nle-C*-F-OH] ([pGlu]RPRCSHKGP[Nle]CF-OH; disulfide 5-12) : 2.82
2. CCCC[C@@H]1NC(=O)[C@@H]2CCCN2C(=O)[C@@H](NC(=O)[C@H](CCCCN)NC(=O)[C@H](Cc2c[nH]cn2)NC(=O)[C@H](CO)NC(=O)[C@H](CC(C)C)NC(=O)[C@H](CCCNC(=N)N)NC(=O)[C@@H]2CCCN2C(=O)[C@H](CCCNC(=N)N)NC(=O)[C@@H]2CCC(=O)N2)CSSC[C@@H](C(=O)N[C@@H](Cc2ccccc2)C(=O)O)NC1=O [Example 14, pE-R-P-R-L-S-H-K-C*-P-Nle-C*-F-OH] ([pGlu]RPRLSHKCP[Nle]CF-OH; disulfide 9-12) : 1.08

---

# system name: UniProt P35414
# Sequence (P35414 1-380): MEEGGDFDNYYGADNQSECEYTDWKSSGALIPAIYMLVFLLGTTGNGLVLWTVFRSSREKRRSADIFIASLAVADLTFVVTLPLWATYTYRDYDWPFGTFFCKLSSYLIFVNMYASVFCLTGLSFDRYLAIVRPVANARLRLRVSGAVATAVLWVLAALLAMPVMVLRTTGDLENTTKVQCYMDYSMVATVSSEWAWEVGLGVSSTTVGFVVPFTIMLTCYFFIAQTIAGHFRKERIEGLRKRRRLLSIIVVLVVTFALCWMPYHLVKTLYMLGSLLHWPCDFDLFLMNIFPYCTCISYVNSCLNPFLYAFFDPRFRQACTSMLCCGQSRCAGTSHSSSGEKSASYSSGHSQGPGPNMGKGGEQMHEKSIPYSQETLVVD
# test name: hAPJ Calcium Flux Assay
# conditions used: Chem-5 APJ stable cells, FLIPR calcium flux; read-out: hAPJ Ca2+ Flux EC50
Bridge positions count the residues as written; N and C are the ends. Square brackets hold non-standard residues; d marks the D form. Peptide text beside a SMILES is read from it. pGlu = O=C1CC[C@@H](C(=O)O)N1; d(hCys) = N[C@H](CCS)C(=O)O; hCys = N[C@@H](CCS)C(=O)O; Nle = CCCC[C@H](N)C(=O)O
The entries below come with measured EC50 values attached.
measurement type: EC50 (nM)

1) CCCC[C@@H]1NC(=O)[C@@H]2CCCN2C(=O)CNC(=O)[C@H](CCCCN)NC(=O)[C@H](NC(=O)[C@H](CO)NC(=O)[C@H](CC(C)C)NC(=O)[C@H](CCCNC(=N)N)NC(=O)[C@@H]2CCCN2C(=O)[C@H](CCCNC(=N)N)NC(=O)[C@@H]2CCC(=O)N2)CCSSCC[C@@H](C(=O)N[C@@H](Cc2ccccc2)C(=O)O)NC1=O [Example 9, pE-R-P-R-L-S-(D-hC)*-K-G-P-Nle-hC*-F-OH] ([pGlu]RPRLS[d(hCys)]KGP[Nle][hCys]F-OH; disulfide 7-12) : 1030
2) CCCC[C@@H]1NC(=O)[C@@H]2CCCN2C(=O)CNC(=O)[C@H](CCCCN)NC(=O)[C@H](NC(=O)[C@H](CO)NC(=O)[C@H](CC(C)C)NC(=O)[C@H](CCCNC(=N)N)NC(=O)[C@@H]2CCCN2C(=O)[C@H](CCCNC(=N)N)NC(=O)[C@@H]2CCC(=O)N2)CCSSC[C@@H](C(=O)O)NC1=O [Example 10, pE-R-P-R-L-S-(D-hC)*-K-G-P-Nle-C*-OH] ([pGlu]RPRLS[d(hCys)]KGP[Nle]C-OH; disulfide 7-12) : 976
